Molecular target: Human-SGLT1 (Homo sapiens)
Sequence (P13866 1-664): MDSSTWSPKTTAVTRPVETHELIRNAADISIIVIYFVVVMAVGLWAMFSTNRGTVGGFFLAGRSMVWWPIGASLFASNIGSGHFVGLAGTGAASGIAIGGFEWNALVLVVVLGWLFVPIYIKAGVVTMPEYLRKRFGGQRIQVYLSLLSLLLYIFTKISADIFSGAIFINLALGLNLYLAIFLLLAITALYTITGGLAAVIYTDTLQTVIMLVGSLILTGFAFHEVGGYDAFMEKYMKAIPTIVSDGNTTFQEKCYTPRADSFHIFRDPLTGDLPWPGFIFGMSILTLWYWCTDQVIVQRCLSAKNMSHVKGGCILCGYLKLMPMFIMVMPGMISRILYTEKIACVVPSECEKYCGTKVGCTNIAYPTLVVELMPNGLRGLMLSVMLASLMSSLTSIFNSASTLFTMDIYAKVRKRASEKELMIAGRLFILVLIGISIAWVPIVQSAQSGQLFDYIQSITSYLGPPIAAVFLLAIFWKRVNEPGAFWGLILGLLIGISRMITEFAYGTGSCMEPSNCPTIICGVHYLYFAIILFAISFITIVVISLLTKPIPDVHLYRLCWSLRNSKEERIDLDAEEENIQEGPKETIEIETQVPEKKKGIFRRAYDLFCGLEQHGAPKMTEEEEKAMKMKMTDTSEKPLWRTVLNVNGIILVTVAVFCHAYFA
Test: SGLT1 glucose transport assay ([14C]-methyl α-D-glucopyranoside uptake)
Conditions: cells stably expressing Human-SGLT1, 37° C. for 2 hours
outcome measure: IC50 (nM)

CCc1ccc([C@@H]2O[C@H](SC)[C@@H](O)[C@H](O)[C@H]2O)cc1Cc1ccc(OC2CCN(C(=O)C[C@H](N)Cc3cc(F)c(F)cc3F)CC2)cc1    0.7
CS[C@H]1O[C@@H](c2ccc(C)c(Cc3ccc(OC4CCN(C(=O)C[C@H](N)Cc5cc(F)c(F)cc5F)CC4)cc3)c2)[C@H](O)[C@@H](O)[C@@H]1O    0.8
CS[C@H]1O[C@@H](c2ccc(C)c(Cc3ccc(CCCC(=O)NC(C)(C)C(=O)NCCN(C)C)cc3)c2)[C@H](O)[C@@H](O)[C@@H]1O [LX2761, reference compound]    1.1

A = CS[C@H]1O[C@@H](c2cccc(Cc3ccc(OC4CCN(C(=O)C[C@H](N)Cc5cc(F)c(F)cc5F)CC4)cc3)c2)[C@H](O)[C@@H](O)[C@@H]1O
B = CS[C@H]1O[C@@H](c2ccc(F)c(Cc3ccc(OC4CCN(C(=O)C[C@H](N)Cc5cc(F)c(F)cc5F)CC4)cc3)c2)[C@H](O)[C@@H](O)[C@@H]1O
**Q:** Smaller IC50 value, A vs B ? Indicate which entry you chose by stating its label.
**A:** B
